Origin of the recorded values: patent US20070213359A1

Reported IC50 values are given for each entry in this list.
Target: Ghrelin receptor (Homo sapiens)
Sequence (Q92847 whole entry): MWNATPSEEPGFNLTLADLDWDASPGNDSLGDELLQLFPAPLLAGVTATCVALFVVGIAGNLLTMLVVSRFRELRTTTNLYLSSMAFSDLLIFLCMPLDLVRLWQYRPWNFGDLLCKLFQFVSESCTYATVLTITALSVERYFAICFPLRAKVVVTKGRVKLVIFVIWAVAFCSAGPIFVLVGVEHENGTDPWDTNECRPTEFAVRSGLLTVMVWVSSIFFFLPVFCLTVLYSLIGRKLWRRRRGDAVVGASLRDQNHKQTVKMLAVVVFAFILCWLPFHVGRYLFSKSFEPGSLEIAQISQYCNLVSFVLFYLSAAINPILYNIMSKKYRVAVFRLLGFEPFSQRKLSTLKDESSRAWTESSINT
Assay: Receptor Selection and Amplification Technology (R-SAT) assay
Format: cell-based
Set-up: expressed in transfected cells; host or cells: NIH3T3
Conditions: negative logarithm of ligand concentration causing 50% inhibition of constitutive receptor response; transfected NIH3T3 cells; '—' not defined (nd used separately); read-out: RSAT pIC50 (converted)
readout: IC50 (nM)

>  <molecule>
CC(=O)c1cn(CC(C)CN2CCC(c3nc4ccccc4s3)CC2)c2ccccc12 (stereo not shown)

>  <testSystem>
Ghrelin receptor (Homo sapiens)

>  <resultValue>
2510

$$$$
>  <molecule>
COc1cccc2c(C#N)cn(CCCN3CCCN(Cc4ccccc4Cl)CC3)c12

>  <testSystem>
Ghrelin receptor (Homo sapiens)

>  <resultValue>
2.51

$$$$
>  <molecule>
COc1ccc2c(c1)c(C(C)=O)cn2CCCN1C2CCC1CC(Oc1ccc(Cl)cc1)C2 (stereo not shown)

>  <testSystem>
Ghrelin receptor (Homo sapiens)

>  <resultValue>
1260

$$$$
>  <molecule>
CC(C)CC(=O)c1cn(CCCN2CCC(Oc3ccccc3Cl)CC2)c2ccccc12

>  <testSystem>
Ghrelin receptor (Homo sapiens)

>  <resultValue>
1580

$$$$
>  <molecule>
CC(=O)c1cn(CCCN2C3CCC2CC(CCc2ccc(Cl)cc2)C3)c2c(Cl)cccc12 (stereo not shown)

>  <testSystem>
Ghrelin receptor (Homo sapiens)

>  <resultValue>
31.6

$$$$
>  <molecule>
COc1cccc2c(C(=O)NCC(C)C)cn(CCCN3CCC(Oc4cccc(Cl)c4)CC3)c12

>  <testSystem>
Ghrelin receptor (Homo sapiens)

>  <resultValue>
31.6

$$$$
>  <molecule>
COc1cccc2c(C(C)=O)cn(CCCN3CCC(S(=O)(=O)c4ccc(Cl)cc4)CC3)c12

>  <testSystem>
Ghrelin receptor (Homo sapiens)

>  <resultValue>
10000

$$$$
>  <molecule>
COc1cccc2c(C(=O)NCc3cccc(Cl)c3)cn(CCCN3C4CCC3CC(Oc3ccccc3Cl)C4)c12 (stereo not shown)

>  <testSystem>
Ghrelin receptor (Homo sapiens)

>  <resultValue>
3.98

$$$$
>  <molecule>
CCc1cccc2c(C(C)=O)cn(CCCN3CCN(CCOc4ccccc4)CC3)c12

>  <testSystem>
Ghrelin receptor (Homo sapiens)

>  <resultValue>
39.8

$$$$
>  <molecule>
COc1cccc2c(C(C)=O)cn(CCCN3CCN(c4ccccc4Cl)CC3)c12

>  <testSystem>
Ghrelin receptor (Homo sapiens)

>  <resultValue>
25.1

$$$$
>  <molecule>
CCCCC1CCN(CCCn2cc(C(=O)CC)c3ccccc32)CC1

>  <testSystem>
Ghrelin receptor (Homo sapiens)

>  <resultValue>
1000

$$$$
>  <molecule>
CC(=O)CCc1cn(CCCN2CCC(Oc3ccc(F)cc3)CC2)c2ccccc12

>  <testSystem>
Ghrelin receptor (Homo sapiens)

>  <resultValue>
1260

$$$$
>  <molecule>
CCCCC1CCN(CC(C)Cn2cc(C(C)=O)c3ccccc32)CC1 (stereo not shown)

>  <testSystem>
Ghrelin receptor (Homo sapiens)

>  <resultValue>
2000

$$$$
>  <molecule>
CCCCC(=O)c1cn(CCCN2C3CCC2CC(Oc2ccc(Cl)cc2)C3)c2ccc(OC)cc12 (stereo not shown)

>  <testSystem>
Ghrelin receptor (Homo sapiens)

>  <resultValue>
126

$$$$
>  <molecule>
CCCCCCC1CCN(CCCn2cc(C(C)=O)c3ccccc32)CC1

>  <testSystem>
Ghrelin receptor (Homo sapiens)

>  <resultValue>
200

$$$$
>  <molecule>
CC(=O)c1cn(CCCN2CCC(Oc3ccccc3Cl)CC2)c2ccc(Br)cc12

>  <testSystem>
Ghrelin receptor (Homo sapiens)

>  <resultValue>
15800

$$$$
>  <molecule>
CC(=O)c1cn(CCCN2CCCN(Cc3ccc(F)cc3)CC2)c2ncccc12

>  <testSystem>
Ghrelin receptor (Homo sapiens)

>  <resultValue>
5.01

$$$$
>  <molecule>
COc1ccc2c(C(C)=O)cn(CCCN3CCC(Oc4ccc(F)cc4)CC3)c2c1

>  <testSystem>
Ghrelin receptor (Homo sapiens)

>  <resultValue>
158

$$$$
>  <molecule>
COc1cccc2c(C(C)=O)cn(CCCN3CCC4(CC3)C(=O)NCN4c3ccccc3)c12

>  <testSystem>
Ghrelin receptor (Homo sapiens)

>  <resultValue>
316

$$$$
>  <molecule>
CC(=O)c1cn(CCCN2C3CCC2CC(CCc2ccc(Cl)cc2)C3)c2c(Br)cccc12 (stereo not shown)

>  <testSystem>
Ghrelin receptor (Homo sapiens)

>  <resultValue>
39.8

$$$$
>  <molecule>
COc1ccccc1C1CCN(CCCn2cc(C(C)=O)c3ccccc32)CC1 [drawing 533]

>  <testSystem>
Ghrelin receptor (Homo sapiens)

>  <resultValue>
316

$$$$
>  <molecule>
CC(=O)c1c(C)n(CCCN2CCCN(Cc3ccc(F)cc3)CC2)c2c(Br)cccc12

>  <testSystem>
Ghrelin receptor (Homo sapiens)

>  <resultValue>
398

$$$$
>  <molecule>
COc1cccc2c(C(C)=O)cn(CCCN3CCC(Cc4ccccc4)CC3)c12

>  <testSystem>
Ghrelin receptor (Homo sapiens)

>  <resultValue>
31.6

$$$$
>  <molecule>
CC(=O)c1cn(CCCN2CCCN(CCc3ccccc3)CC2)c2c(C#N)cccc12

>  <testSystem>
Ghrelin receptor (Homo sapiens)

>  <resultValue>
39.8

$$$$
>  <molecule>
COc1cccc2c(C(C)=O)cn(CC(C)CN3CCC(Oc4cccc(Cl)c4)CC3)c12 (stereo not shown)

>  <testSystem>
Ghrelin receptor (Homo sapiens)

>  <resultValue>
39.8

$$$$
>  <molecule>
COc1cccc2c(C(=O)NCC(C)C)cn(CCCN3CCC(Oc4ccc(Cl)cc4)CC3)c12

>  <testSystem>
Ghrelin receptor (Homo sapiens)

>  <resultValue>
3.98

$$$$
>  <molecule>
CC(=O)c1cn(CCCN2C3CCC2CC(Oc2ccc(F)cc2)C3)c2c(C)cccc12 (stereo not shown)

>  <testSystem>
Ghrelin receptor (Homo sapiens)

>  <resultValue>
20

$$$$
>  <molecule>
COc1cccc2c(C(C)=O)cn(CCCN3CCN(CC4CCCO4)CC3)c12 (stereo not shown)

>  <testSystem>
Ghrelin receptor (Homo sapiens)

>  <resultValue>
631

$$$$
>  <molecule>
CC(=O)c1cn(CCCN2C3CCC2CC(Oc2ccc(Cl)cc2)C3)c2c(Cl)cccc12 (stereo not shown)

>  <testSystem>
Ghrelin receptor (Homo sapiens)

>  <resultValue>
50.1

$$$$
>  <molecule>
CC(=O)c1cn(CCCN2C3CCC2CC(CCc2ccc(Cl)cc2)C3)c2c(C)cccc12 (stereo not shown)

>  <testSystem>
Ghrelin receptor (Homo sapiens)

>  <resultValue>
100

$$$$
>  <molecule>
CC(=O)c1cn(CCCN2CCC(C(=O)c3ccccc3)CC2)c2ccc(Br)cc12

>  <testSystem>
Ghrelin receptor (Homo sapiens)

>  <resultValue>
10000

$$$$
>  <molecule>
CCCCC(=O)c1cn(CCCN2C3CCC2CC(OCC2CC2)C3)c2ccc(OC)cc12 (stereo not shown)

>  <testSystem>
Ghrelin receptor (Homo sapiens)

>  <resultValue>
200

$$$$
>  <molecule>
COc1cccc2c(C(C)=O)cn(CCCN3CCN(c4ccc(C#N)cc4)CC3)c12

>  <testSystem>
Ghrelin receptor (Homo sapiens)

>  <resultValue>
12.6

$$$$
>  <molecule>
CC(=O)c1cn(CCCN2CCC(Oc3cccc(Cl)c3)CC2)c2ncccc12

>  <testSystem>
Ghrelin receptor (Homo sapiens)

>  <resultValue>
15.8

$$$$
>  <molecule>
COc1cccc2c(C(C)=O)cn(CCCN3C4CCC3CC(Oc3ccc(Cl)cc3)C4)c12 (stereo not shown)

>  <testSystem>
Ghrelin receptor (Homo sapiens)

>  <resultValue>
12.6

$$$$
>  <molecule>
O=C(c1ccccc1)C1CCN(CCCn2cc(C(=O)C(F)(F)F)c3ccccc32)CC1

>  <testSystem>
Ghrelin receptor (Homo sapiens)

>  <resultValue>
631

$$$$
>  <molecule>
CCCOC1CCN(CC(C)Cn2cc(C(C)=O)c3ccccc32)CC1 (stereo not shown)

>  <testSystem>
Ghrelin receptor (Homo sapiens)

>  <resultValue>
631

$$$$
>  <molecule>
COc1ccccc1C1CCN(CC(C)Cn2cc(C(C)=O)c3ccccc32)CC1 (stereo not shown)

>  <testSystem>
Ghrelin receptor (Homo sapiens)

>  <resultValue>
15800

$$$$
>  <molecule>
CC(=O)c1cn(CCCCN2C3CCC2CC(Oc2ccc(Cl)cc2)C3)c2ccccc12 (stereo not shown)

>  <testSystem>
Ghrelin receptor (Homo sapiens)

>  <resultValue>
3160

$$$$
>  <molecule>
COc1cccc2c(C(=O)NCC(C)C)cn(CCCN3C4CCC3CC(Oc3ccc(Cl)cc3)C4)c12 (stereo not shown)

>  <testSystem>
Ghrelin receptor (Homo sapiens)

>  <resultValue>
6.31

$$$$
